Hello, the source for this data is PubChem BioAssay AID1159580, in case you need it.

experiment: chemical genetic growth profiling, strain panel (AID 1159580);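 further: tested at 20 µM; growth read once vehicle control cultures reached saturation at 30 °C; 1 = growth at the plate median or of vehicle wells; lower values mean less growth of the strain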; conditions: S. cerevisiae deletion strains, growth OD, locus YDL040C, strain nat1, active compounds read low
Out of some 5,500 compounds screened, about 2,000 (36%) were called active. Another 18% or so got no clear call; they are omitted. Some of the results follow.

compound: CO[C@H]1C[C@H](O[C@H]2[C@H](C)[C@@H](OC3O[C@H](C)C[C@H](N(C)C)[C@H]3O)[C@@H](C)C[C@]3(CO3)C(=O)[C@H](C)[C@@H](O)[C@@H](C)[C@@H](C)OC(=O)[C@@H]2C)O[C@@H](C)[C@@H]1O (some centres undefined)
normalized growth: 1.01

compound: CCCCCCCCCCCCC[N+](C)(C)Cc1ccccc1
normalized growth: 0.0568

compound: O=[N+]([O-])O[C@H]1CO[C@H]2[C@@H]1OC[C@H]2O[N+](=O)[O-]
normalized growth: 0.999

compound: CC(C)(C)CC(C)(C)c1ccc(OCCOCC[N+](C)(C)Cc2ccccc2)cc1
normalized growth: 0.0719

compound: CCc1ccc(CCOc2ccc(CC3SC(=O)NC3=O)cc2)nc1 (centres undefined)
normalized growth: 0.99

compound: Cc1cc(=O)c2c(O)c(C)c(O)cc2o1
normalized growth: 1.01

compound: Cc1cc(=O)c2c(O)cc(O)c(C)c2o1
normalized growth: 0.979

compound: COc1ccc(-c2cc(=O)c3c(O)cc(OC)c(OC)c3o2)c(OC)c1
normalized growth: 1.02

compound: COc1cc(O)c2c(=O)cc(C)oc2c1CC=C(C)C
normalized growth: 0.986

compound: CCN(CC)C(=S)SSC(=S)N(CC)CC
normalized growth: 0.0568

compound: COc1cc2c(cc1OC)C(=O)C(CC1CCN(Cc3ccccc3)CC1)C2 (centres undefined)
normalized growth: 0.981

compound: COC(=O)COc1cc(Cl)c(Cl)cc1Cl
normalized growth: 0.996

compound: COc1c(O)cc2oc3cc(O)c(CC=C(C)C)c(O)c3c(=O)c2c1CC=C(C)C
normalized growth: 1

compound: C=CCc1ccc2c(c1)OCO2
normalized growth: 1.01

compound: CN=C(NC#N)NCCSCc1nc[nH]c1C
normalized growth: 1.01

compound: COc1ccc(C[C@H]2NC[C@H](O)[C@H]2OC(C)=O)cc1
normalized growth: 1

compound: CC[C@H]1OC(=O)C[C@@H](O)[C@H](C)[C@@H](O[C@@H]2O[C@H](C)[C@@H](O[C@H]3C[C@@](C)(O)[C@@H](O)[C@H](C)O3)[C@H](N(C)C)[C@H]2O)[C@@H](CC=O)C[C@@H](C)C(=O)/C=C/C(C)=C/[C@@H]1CO[C@@H]1O[C@H](C)[C@@H](O)[C@@H](OC)[C@H]1OC
normalized growth: 0.99

compound: CN1CCCC(n2nc(Cc3ccc(Cl)cc3)c3ccccc3c2=O)CC1 (centres undefined)
normalized growth: 1

compound: C[N+](C)(C)CCOP(=O)([O-])OP(=O)(O)OC[C@H]1OC(n2ccc(N)nc2=O)[C@H](O)[C@@H]1O (some centres undefined)
normalized growth: 0.979
